Biological target: human GluN1^FA,TL/GluN3A receptors (Homo sapiens, UniProt Q8TCU5)
Construct: Human GluN3A (NP_597702.2) and rat GluN3B (NP_579842.2) were synthesized and subcloned into SP6 plasmids; expressed in transfected cells; host or cells: Xenopus laevis oocytes, cRNA injection (GluN1:GluN3 1:3)
Sequence (Q8TCU5 24-1115, other chains not shown): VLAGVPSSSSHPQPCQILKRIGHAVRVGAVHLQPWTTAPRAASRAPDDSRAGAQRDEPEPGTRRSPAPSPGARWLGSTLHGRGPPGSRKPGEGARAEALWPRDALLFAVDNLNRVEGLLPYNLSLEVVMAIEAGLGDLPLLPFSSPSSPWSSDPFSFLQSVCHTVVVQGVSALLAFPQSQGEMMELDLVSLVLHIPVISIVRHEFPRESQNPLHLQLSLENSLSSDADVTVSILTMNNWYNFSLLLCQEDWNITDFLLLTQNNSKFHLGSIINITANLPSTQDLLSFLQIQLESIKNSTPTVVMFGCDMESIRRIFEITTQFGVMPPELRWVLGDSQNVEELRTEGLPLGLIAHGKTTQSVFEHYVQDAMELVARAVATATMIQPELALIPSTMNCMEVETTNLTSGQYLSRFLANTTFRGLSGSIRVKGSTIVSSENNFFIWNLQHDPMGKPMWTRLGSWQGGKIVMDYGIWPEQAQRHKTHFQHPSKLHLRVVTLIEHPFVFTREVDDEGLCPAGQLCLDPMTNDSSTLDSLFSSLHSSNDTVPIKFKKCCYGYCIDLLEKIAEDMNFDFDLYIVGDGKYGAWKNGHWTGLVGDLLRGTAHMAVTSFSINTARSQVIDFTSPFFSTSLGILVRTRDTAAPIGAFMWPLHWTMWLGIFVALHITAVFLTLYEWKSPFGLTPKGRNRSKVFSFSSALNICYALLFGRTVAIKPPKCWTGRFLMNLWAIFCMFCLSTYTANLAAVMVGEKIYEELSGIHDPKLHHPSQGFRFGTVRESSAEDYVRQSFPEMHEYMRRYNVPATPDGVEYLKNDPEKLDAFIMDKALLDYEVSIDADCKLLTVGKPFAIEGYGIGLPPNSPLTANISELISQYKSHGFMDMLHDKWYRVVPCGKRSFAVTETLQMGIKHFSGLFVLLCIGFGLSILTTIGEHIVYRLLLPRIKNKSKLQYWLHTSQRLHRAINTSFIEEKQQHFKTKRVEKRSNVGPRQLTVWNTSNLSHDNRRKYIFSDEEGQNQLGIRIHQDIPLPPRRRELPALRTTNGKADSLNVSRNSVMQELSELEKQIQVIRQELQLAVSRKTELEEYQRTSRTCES
Assay: Two-electrode voltage-clamp recordings of GluN1^FA,TL/GluN3A receptors in Xenopus oocytes
Type: cell-based
Settings: @ 10 μM
Entries annotated with measured hGluN1^FA,TL/hGluN3A (100 × Idrug/Icontrol)
measured_endpoint: hGluN1^FA,TL/hGluN3A (100 × Idrug/Icontrol) (%)

molecule: Cc1cccc(OCC(c2ccc(OC(C)C)cc2)N2Cc3ccccc3C2=O)n1 (stereo not shown) [EU1180-508]
uom: %
reported_measurement: 28
//
molecule: Cc1cccc(OCC(c2ccc(OC(C)C)cc2)N2Cc3ccc(Cl)cc3C2=O)n1 (stereo not shown) [EU1180-509]
uom: %
reported_measurement: 81
//
molecule: CCOc1ccc(OCC(c2ccc(OC(C)C)cc2)N2Cc3ccccc3C2=O)cc1 (stereo not shown) [EU1180-499]
uom: %
reported_measurement: 67
//
molecule: COc1ccc(OCC(c2ccc(OC(C)C)cc2)N2Cc3ccccc3C2=O)cc1 (stereo not shown) [EU1180-481]
uom: %
reported_measurement: 57

* * *

Biological target: human GluN1^FA,TL/GluN3A receptors (Homo sapiens, UniProt Q8TCU5)
Construct: Human GluN3A (NP_597702.2) and rat GluN3B (NP_579842.2) were synthesized and subcloned into SP6 plasmids; expressed in transfected cells; host or cells: Xenopus laevis oocytes, cRNA injection (GluN1:GluN3 1:3)
Experiment: Two-electrode voltage-clamp recordings of GluN1^FA,TL/GluN3A receptors in Xenopus oocytes
Type: cell-based
Details: read-out: hGluN1^FA,TL/hGluN3A (100 × Idrug/Icontrol at 30 μM drug)
measured_endpoint: remaining activity at 30 µM (%)

compound: COc1ccc(C(COc2cccc(C)n2)N2Cc3ccc(Br)cc3C2=O)cc1 (centres unmarked)
measured_endpoint: remaining activity at 30 µM
reported_measurement: 69
--
compound: COc1ccc(OCC(c2ccc(OC)c(OC)c2)N2Cc3cc(F)ccc3C2=O)cc1 (centres unmarked)
measured_endpoint: remaining activity at 30 µM
reported_measurement: 94
--
compound: CCOc1ccc(OCC(c2ccc(OC(C)C)cc2)N2Cc3ccc(F)cc3C2=O)cc1 (centres unmarked)
measured_endpoint: remaining activity at 30 µM
reported_measurement: 35
--
compound: COc1ccc(OCC(c2ccc(OC(C)C)cc2)N2Cc3ccc(C(F)(F)F)cc3C2=O)cc1 (centres unmarked)
measured_endpoint: remaining activity at 30 µM
reported_measurement: 98
--
compound: Cc1cccc(OCC(c2ccc(OC(C)C)cc2)N2Cc3ccc(F)cc3C2=O)n1 (centres unmarked)
measured_endpoint: remaining activity at 30 µM
reported_measurement: 36
--
compound: COc1ccc(OCC(c2ccc(OC)cc2F)N2Cc3ccc(Br)cc3C2=O)cc1 (centres unmarked)
measured_endpoint: remaining activity at 30 µM
reported_measurement: 83
--
compound: COc1cc(F)c(C(COc2cccc(C)n2)N2Cc3ccc(Cl)cc3C2=O)c(F)c1 (centres unmarked)
measured_endpoint: remaining activity at 30 µM
reported_measurement: 57
--
compound: COc1ccc(OCC(c2ccc(OC)c(OC)c2)N2Cc3ccc(C(F)(F)F)cc3C2=O)cc1 (centres unmarked)
measured_endpoint: remaining activity at 30 µM
reported_measurement: 104
